Tested on: NF-kB p65/p50 heterodimer (RelA/NFKB1) (Homo sapiens, UniProt Q04206;P19838 Q04206:1-551,P19838:1-433)
Sequence (Q04206 whole entry, chain 1 of 2): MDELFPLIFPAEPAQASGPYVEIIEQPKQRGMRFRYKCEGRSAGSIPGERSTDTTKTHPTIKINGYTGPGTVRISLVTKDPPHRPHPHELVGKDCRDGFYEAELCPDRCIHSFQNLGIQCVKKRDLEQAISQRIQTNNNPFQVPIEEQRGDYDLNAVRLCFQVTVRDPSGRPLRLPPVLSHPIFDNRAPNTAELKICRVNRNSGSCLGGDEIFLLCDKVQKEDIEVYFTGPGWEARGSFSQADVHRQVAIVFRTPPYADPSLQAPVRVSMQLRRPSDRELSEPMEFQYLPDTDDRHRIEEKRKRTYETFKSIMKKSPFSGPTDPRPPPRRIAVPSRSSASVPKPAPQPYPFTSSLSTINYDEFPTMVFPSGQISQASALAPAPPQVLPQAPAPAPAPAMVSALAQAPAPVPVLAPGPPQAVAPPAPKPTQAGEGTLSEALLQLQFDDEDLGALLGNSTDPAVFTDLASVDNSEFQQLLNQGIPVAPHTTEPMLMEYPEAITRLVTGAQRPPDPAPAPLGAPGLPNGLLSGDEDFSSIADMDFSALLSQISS
Sequence (P19838 1-433, chain 2 of 2): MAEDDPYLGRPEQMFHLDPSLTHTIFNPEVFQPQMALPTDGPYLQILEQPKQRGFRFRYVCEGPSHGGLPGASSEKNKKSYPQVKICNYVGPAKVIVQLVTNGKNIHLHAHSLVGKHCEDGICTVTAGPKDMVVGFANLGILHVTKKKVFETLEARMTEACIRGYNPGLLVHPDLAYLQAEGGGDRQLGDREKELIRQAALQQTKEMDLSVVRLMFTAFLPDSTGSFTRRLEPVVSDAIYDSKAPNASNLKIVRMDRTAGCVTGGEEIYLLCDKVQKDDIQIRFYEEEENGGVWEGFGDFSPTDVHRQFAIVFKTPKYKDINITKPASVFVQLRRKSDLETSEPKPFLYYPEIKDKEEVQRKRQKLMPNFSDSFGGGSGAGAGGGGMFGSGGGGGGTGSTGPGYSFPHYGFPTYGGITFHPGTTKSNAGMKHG
Test: EMSA; competition vs 32P 113/114 probe
Condition: protein: extract; tags: none; nuclear extract of LPS-stimulated THP-1 cells
Quantity: IC50 (fold molar excess)
The response must be a number in fold molar excess with no trailing unit.

Examples with their reported IC50 follow.
Enquiry: Entry under review: decoy 197 C-W (dsDNA) DNA 1: CTCGGGGACTTTCCCTGT DNA 2: ACAGGGAAAGTCCCCGAG . Reported IC50?
Return: 26

Enquiry: Entry under review: 153/154 PO/PS (dsDNA, strand 153 PO; strand 154 full PS) DNA 1: AGTTGAGGACTTTCCAGGC DNA 2: GCCTGGAAAGTCCTCAACT . Reported IC50?
Return: 5

Enquiry: Entry under review: decoy 221 C-X (dsDNA) DNA 1: CTGGGGACTTTCCCTC DNA 2: GAGGGAAAGTCCCCAG . Reported IC50?
Return: 25

Others:
Enquiry: Entry under review: 153/154 H11/H11 (dsDNA, PS at the 11 3'-most linkages of each strand) DNA 1: AGTTGAGGACTTTCCAGGC DNA 2: GCCTGGAAAGTCCTCAACT . Reported IC50?
Return: 24

Enquiry: Entry under review: decoy 177 E-W (dsDNA) DNA 1: CTCGGACTTTCCTGT DNA 2: ACAGGAAAGTCCGAG . Reported IC50?
Return: 57.5

Enquiry: Entry under review: decoy 141 A-Z-2 (dsDNA) DNA 1: GTTGAGGGACTTTCCAGG DNA 2: CCTGGAAAGTCCCTCAAC . Reported IC50?
Return: 7.5
